For each record, write down the corresponding kinase still bound, per cent of control.
# Measured Target: WEE1 (human)
# Method Description: KINOMEscan competition binding
# Condition Info: compound 10.0 µM
Numbers only, in %.

I need kinase still bound, per cent of control for every entry listed below, if you could help.
1. CN(C)C/C=C/C(=O)Nc1ccc(C(=O)Nc2cccc(Nc3nccc(-c4cccnc4)n3)c2)cc1
2. CCN(CC)CCCCNc1ncc2c(n1)N(C)C(=O)N(c1c(Cl)c(OC)cc(OC)c1Cl)C2
3. O=c1cc(N2CCOCC2)oc2c(-c3cccc4c3sc3ccccc34)cccc12
4. Cc1n[nH]c2ccc(-c3cncc(OC[C@@H](N)Cc4c[nH]c5ccccc45)c3)cc12
5. C[C@@H](Oc1cc(-c2cnn(C3CCNCC3)c2)cnc1N)c1c(Cl)ccc(F)c1Cl
6. O=C(Nc1cccc(Nc2ncc(Br)c(NCCc3cnc[nH]3)n2)c1)N1CCCC1
7. CNC(=O)c1ccc(Nc2cc(Nc3ccccc3S(=O)(=O)C(C)C)c3cc[nH]c3n2)nc1

Completion:
1. 100
2. 100
3. 100
4. 100
5. 100
6. 52
7. 100

I need kinase still bound, per cent of control for every entry listed below, if you could help.
1. CS(=O)(=O)N1CCN(Cc2cc3nc(-c4cccc5[nH]ncc45)nc(N4CCOCC4)c3s2)CC1
2. COc1cc2ncn(-c3cc(OCc4ccccc4C(F)(F)F)c(C(N)=O)s3)c2cc1OC
3. COc1cc2ncnc(-n3nc(-c4ccccn4)nc3N)c2cc1OC
4. COc1cc(N2CCN(C)CC2)ccc1Nc1ncc2c(n1)N(C)c1ccccc1C(=O)N2C
5. CCN(CC)CCCCNc1ncc2cc(-c3cc(OC)cc(OC)c3)c(NC(=O)NC(C)(C)C)nc2n1
6. C=CC(=O)Nc1cc(-n2c(=O)ccc3cnc4ccc(-c5cn[nH]c5)cc4c32)ccc1C

Completion:
100
83
80
100
100
100
